Please respond with reported melting point for every item in the list.

Report melting point for each item below.
1. CC(C)c1nnn(-c2c(Cl)cccc2Cl)c1COc1ccc(N(C)C(=O)c2ccc(C(=O)O)cc2)c(C(F)(F)F)n1
2. CC(C)c1onc(-c2c(Cl)cccc2Cl)c1COc1ccc(NC(=O)c2cccc(C(=O)O)c2)c(C(F)(F)F)n1
3. CC(C)c1onc(-c2c(Cl)cccc2Cl)c1COc1ccc(NCc2ccc(C(=O)O)cc2)c(C(F)(F)F)n1

1: 218 to 219 °C; 2: 153.8 to 154.8 °C; 3: 259.1 to 260.1 °C

// CC(C)c1onc(-c2c(Cl)cccc2Cl)c1COc1ccc(N(C)C(=O)c2ccc(C(N)=O)cc2)c(C(F)(F)F)n1 : melting point value = 229 °C (dec.)
